# system-tested: human orexin 1 receptor (Homo sapiens)
# experiment-notes: Human orexin 1 receptor radioligand binding
# condition-context: read-out: hOX1 Ki
observed-property: Ki (nM)

[[record]]
smiles_string = "Cc1ccc(-n2nccn2)c(C(=O)N2C[C@H]3C[C@@H](Nc4ccc(C(F)(F)F)cn4)[C@@H]2C3)n1"
unit_info = "nM"
value_reported = 6


---

# system-tested: rat orexin 1 receptor (Rattus norvegicus)
# experiment-notes: Rat orexin 1 receptor radioligand binding
# condition-context: HEK293 cells stably expressing rat orexin 1 receptor; competitive radioligand binding, apparent Ki; read-out: rOX1 Ki
pKi: −log10 of the molar value.
Would you please tag the item met when its pKi is 8 or above, and not met when it is below?

[[record]]
compound = "O=C(c1ccccc1-n1nccn1)N1C[C@H]2C[C@@H](Oc3ncccc3C(F)(F)F)[C@@H]1C2"
qualitative_label = "not met"

[[record]]
compound = "Cc1ccc(C(=O)N2C[C@H]3C[C@@H](Oc4ccc(C(F)(F)F)cn4)[C@@H]2C3)c(-n2ccnn2)n1"
qualitative_label = "not met"

[[record]]
compound = "COc1cccc(-c2ccn[nH]2)c1C(=O)N1C[C@H]2C[C@@H](Oc3ccc(C(F)(F)F)cn3)[C@@H]1C2"
qualitative_label = "not met"

[[record]]
compound = "O=C(c1cc(F)ccc1-c1ncccn1)N1C[C@H]2C[C@@H](Nc3ccc(C(F)(F)F)cn3)[C@@H]1C2"
qualitative_label = "met"

[[record]]
compound = "COc1c(F)cccc1C(=O)N1C[C@H]2C[C@@H](Oc3ccc(C(F)(F)F)cn3)[C@@H]1C2"
qualitative_label = "not met"

[[record]]
compound = "O=C(c1ccccc1-n1nccn1)N1C[C@H]2C[C@@H](Oc3ccc(C(F)(F)F)cn3)[C@@H]1C2"
qualitative_label = "met"

[[record]]
compound = "O=C(c1ncccc1-n1nccn1)N1C[C@H]2C[C@@H](Oc3ccc(C(F)(F)F)cn3)[C@@H]1C2"
qualitative_label = "not met"

[[record]]
compound = "O=C(c1ccccc1-n1nccn1)N1CC2CC(Oc3ccc(C(F)(F)F)cn3)C1C2 (racemic)"
qualitative_label = "not met"


---

# system-tested: rat orexin 1 receptor (Rattus norvegicus, UniProt P56718)
# experiment-notes: Rat orexin 1 receptor radioligand binding
# condition-context: HEK293 cells stably expressing rat orexin 1 receptor; competitive radioligand binding, apparent Ki; read-out: rOX1 Ki
pKi: −log10 of the molar value.
Here, each record is paired with measured pKi data.
observed-property: pKi

[[record]]
compound = "Cc1cccc(C(=O)N2C[C@H]3C[C@@H](Nc4ccc(C(F)(F)F)cn4)[C@@H]2C3)c1-n1nccn1"
observed_property = "pKi"
comparison_symbol = "="
value_reported = 8.52

[[record]]
compound = "COc1ccc(C(=O)N2CC3CC(Oc4ccc(C(F)(F)F)cn4)C2C3)c(-c2ncccn2)c1 (racemic)"
observed_property = "pKi"
comparison_symbol = "="
value_reported = 7.36

[[record]]
compound = "COc1ccc(C(=O)N2CC3CC(Oc4ccc(C(F)(F)F)cn4)C2C3)c(-n2nccn2)c1 (racemic)"
observed_property = "pKi"
comparison_symbol = "="
value_reported = 7.28

[[record]]
compound = "O=C(c1cc(F)ccc1-c1ncccn1)N1CC2CC(Oc3ccc(C(F)(F)F)cn3)C1C2 (racemic)"
observed_property = "pKi"
comparison_symbol = "="
value_reported = 7.74

[[record]]
compound = "O=C(c1cccc(F)c1Br)N1C[C@H]2C[C@@H](Oc3ccc(C(F)(F)F)cn3)[C@@H]1C2"
observed_property = "pKi"
comparison_symbol = "="
value_reported = 7.22

[[record]]
compound = "O=C(c1ccccc1-n1nccn1)N1CC2CC(Oc3cnc(C(F)(F)F)cn3)C1C2 (racemic)"
observed_property = "pKi"
comparison_symbol = "="
value_reported = 7.13

[[record]]
compound = "CCOc1ccc2cccnc2c1C(=O)N1C[C@H]2C[C@@H](Nc3ccc(C(F)(F)F)cn3)[C@@H]1C2"
observed_property = "pKi"
comparison_symbol = "="
value_reported = 8.10

[[record]]
compound = "Cc1ccc(C(=O)N2C[C@H]3C[C@@H](Oc4ccc(C(F)(F)F)cn4)[C@@H]2C3)c(-n2nccn2)n1"
observed_property = "pKi"
comparison_symbol = "="
value_reported = 7.26

[[record]]
compound = "O=C(c1c(F)cccc1-c1ncccn1)N1C[C@H]2C[C@@H](Oc3ccc(C(F)(F)F)cn3)[C@@H]1C2"
observed_property = "pKi"
comparison_symbol = "="
value_reported = 8.10

[[record]]
compound = "O=C(c1cccc(F)c1-c1ncccn1)N1C[C@H]2C[C@@H](Oc3ccc(Br)cn3)[C@@H]1C2"
observed_property = "pKi"
comparison_symbol = "="
value_reported = 8.52

[[record]]
compound = "O=C(c1ccc(F)cc1-n1nccn1)N1C[C@H]2C[C@@H](Oc3ccc(C(F)(F)F)cn3)[C@@H]1C2"
observed_property = "pKi"
comparison_symbol = "="
value_reported = 7.66

[[record]]
compound = "Cc1ccc(-n2nccn2)c(C(=O)N2C[C@H]3C[C@@H](Oc4ncccc4C(F)(F)F)[C@@H]2C3)n1"
observed_property = "pKi"
comparison_symbol = "="
value_reported = 6.26

[[record]]
compound = "O=C(c1c(F)cccc1-n1nccn1)N1C[C@H]2C[C@@H](Oc3ccc(C(F)(F)F)cn3)[C@@H]1C2"
observed_property = "pKi"
comparison_symbol = "="
value_reported = 8.00

[[record]]
compound = "O=C(c1c(F)cccc1-c1ncccn1)N1C[C@H]2C[C@@H](Oc3ccc(Br)cn3)[C@@H]1C2"
observed_property = "pKi"
comparison_symbol = "="
value_reported = 8.15

[[record]]
compound = "O=C(c1ccccc1-n1nccn1)N1C[C@H]2C[C@@H](Nc3ccc(C(F)(F)F)cn3)[C@@H]1C2"
observed_property = "pKi"
comparison_symbol = "="
value_reported = 8.52

[[record]]
compound = "O=C(c1ccccc1-n1cnnc1)N1CC2CC(Oc3ccc(C(F)(F)F)cn3)C1C2 (racemic)"
observed_property = "pKi"
comparison_symbol = "<"
value_reported = 5.00

[[record]]
compound = "O=C(c1ccccc1-n1nccn1)N1C[C@H]2C[C@@H](Oc3ccc(Br)cn3)[C@@H]1C2"
observed_property = "pKi"
comparison_symbol = "="
value_reported = 8.22

[[record]]
compound = "Cc1ccc(-n2nccn2)c(C(=O)N2C[C@H]3C[C@@H](Oc4ccc(Br)cn4)[C@@H]2C3)n1"
observed_property = "pKi"
comparison_symbol = "="
value_reported = 8.15


---

Parameter: pKi. Scope: all listed entries.
# system-tested: human orexin 2 receptor (Homo sapiens (Human), UniProt O43614)
# Sequence (O43614 whole entry): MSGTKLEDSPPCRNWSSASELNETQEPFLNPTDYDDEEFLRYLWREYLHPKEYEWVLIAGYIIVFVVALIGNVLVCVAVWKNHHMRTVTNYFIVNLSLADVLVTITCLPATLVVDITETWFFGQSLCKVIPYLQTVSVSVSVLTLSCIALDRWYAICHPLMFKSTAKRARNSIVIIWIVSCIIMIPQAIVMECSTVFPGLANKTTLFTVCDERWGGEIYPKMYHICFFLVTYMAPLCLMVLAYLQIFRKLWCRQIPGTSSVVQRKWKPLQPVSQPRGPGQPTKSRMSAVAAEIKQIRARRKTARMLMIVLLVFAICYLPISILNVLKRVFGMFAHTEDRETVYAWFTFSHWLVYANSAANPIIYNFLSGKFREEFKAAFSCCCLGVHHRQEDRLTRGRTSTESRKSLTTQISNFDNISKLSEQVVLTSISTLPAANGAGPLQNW
# experiment-notes: Human orexin 2 receptor radioligand binding
# condition-context: HEK293 stably expressing human orexin 2 receptor; [3H]-EMPA competitive binding, apparent Ki; read-out: hOX2 Ki
pKi: −log10 of the molar value.
observed-property: pKi

[[record]]
compound = "COc1ccc(C(=O)N2CC3CC(Oc4ccc(C(F)(F)F)cn4)C2C3)c(-c2ncccn2)c1 (racemic) [Example 12]"
observed_property = "pKi"
value_reported = "< 5.00"

[[record]]
compound = "COc1ccc(C(=O)N2CC3CC(Oc4ccc(C(F)(F)F)cn4)C2C3)c(-n2nccn2)c1 (racemic) [Example 13]"
observed_property = "pKi"
value_reported = "< 5.00"

[[record]]
compound = "O=C(c1ccccc1-n1cnnc1)N1CC2CC(Oc3ccc(C(F)(F)F)cn3)C1C2 (racemic) [Example 21]"
observed_property = "pKi"
value_reported = "< 5.00"

[[record]]
compound = "CCOc1ccc2cccnc2c1C(=O)N1CC2CC(Oc3ccc(C(F)(F)F)cn3)C1C2 (racemic) [Example 10]"
observed_property = "pKi"
value_reported = 6.28

[[record]]
compound = "Cc1cnn(C)c1-c1ccccc1C(=O)N1C[C@H]2C[C@@H](Oc3ccc(C(F)(F)F)cn3)[C@@H]1C2 [Example 41]"
observed_property = "pKi"
value_reported = "< 5.00"

[[record]]
compound = "Cc1ccc(C(=O)N2C[C@H]3C[C@@H](Oc4ccc(C(F)(F)F)cn4)[C@@H]2C3)c(-n2ccnn2)n1 [Example 34]"
observed_property = "pKi"
value_reported = 5.96

[[record]]
compound = "COc1c(F)cccc1C(=O)N1C[C@H]2C[C@@H](Oc3ccc(C(F)(F)F)cn3)[C@@H]1C2 [Example 31]"
observed_property = "pKi"
value_reported = "< 5.00"


---

The compounds listed here are annotated with their Ki.
# system-tested: human orexin 2 receptor (Homo sapiens (Human))
# experiment-notes: Human orexin 2 receptor radioligand binding
# condition-context: HEK293 stably expressing human orexin 2 receptor; [3H]-EMPA competitive binding, apparent Ki; read-out: hOX2 Ki
# Method: Human Orexin 2 Receptor Radioligand Binding Studies After centrifugation (2K×G, 5 min at 4° C.), the supernatant was aspirated and the pellets frozen and stored at −80° C. […] Total and nonspecific binding was determined in the absence and presence of 10 μM almorexant. […] Plates were dried in 55° C. oven for 60 min, scintillation fluid was added, and the radioactivity was counted on a Topcount (Packard).
observed-property: Ki (µM)

[[record]]
compound = "Cc1cnc(C(=O)N2CC3CC(Oc4cnc(C(F)(F)F)cn4)C2C3)c(-n2nccn2)c1 (racemic)"
system_tested = "human orexin 2 receptor (Homo sapiens (Human))"
unit_info = "µM"
comparison_symbol = ">"
value_reported = 10

[[record]]
compound = "Cc1cccc(C(=O)N2C[C@H]3C[C@@H](Nc4ccc(C(F)(F)F)cn4)[C@@H]2C3)c1-n1nccn1"
system_tested = "human orexin 2 receptor (Homo sapiens (Human))"
unit_info = "µM"
comparison_symbol = "="
value_reported = 0.046

[[record]]
compound = "Cc1ccc(C(=O)N2C[C@H]3C[C@@H](Oc4ccc(C(F)(F)F)cn4)[C@@H]2C3)c(-n2nccn2)n1"
system_tested = "human orexin 2 receptor (Homo sapiens (Human))"
unit_info = "µM"
comparison_symbol = ">"
value_reported = 10

[[record]]
compound = "O=C(c1cc(F)ccc1-n1nccn1)N1C[C@H]2C[C@@H](Nc3ccc(C(F)(F)F)cn3)[C@@H]1C2"
system_tested = "human orexin 2 receptor (Homo sapiens (Human))"
unit_info = "µM"
comparison_symbol = "="
value_reported = 0.252

[[record]]
compound = "CCOc1ccc2cccnc2c1C(=O)N1C[C@H]2C[C@@H](Nc3ccc(C(F)(F)F)cn3)[C@@H]1C2"
system_tested = "human orexin 2 receptor (Homo sapiens (Human))"
unit_info = "µM"
comparison_symbol = "="
value_reported = 0.192

[[record]]
compound = "O=C(c1ccc(F)cc1-n1nccn1)N1C[C@H]2C[C@@H](Oc3ccc(C(F)(F)F)cn3)[C@@H]1C2"
system_tested = "human orexin 2 receptor (Homo sapiens (Human))"
unit_info = "µM"
comparison_symbol = "="
value_reported = 2.2

[[record]]
compound = "O=C(c1cc(F)ccc1-c1ncccn1)N1C[C@H]2C[C@@H](Nc3ccc(C(F)(F)F)cn3)[C@@H]1C2"
system_tested = "human orexin 2 receptor (Homo sapiens (Human))"
unit_info = "µM"
comparison_symbol = "="
value_reported = 0.181

[[record]]
compound = "Cc1ccc(-n2nccn2)c(C(=O)N2C[C@H]3C[C@@H](Oc4ncccc4C(F)(F)F)[C@@H]2C3)n1"
system_tested = "human orexin 2 receptor (Homo sapiens (Human))"
unit_info = "µM"
comparison_symbol = "="
value_reported = 4

[[record]]
compound = "O=C(c1ncccc1-n1nccn1)N1C[C@H]2C[C@@H](Oc3ccc(C(F)(F)F)cn3)[C@@H]1C2"
system_tested = "human orexin 2 receptor (Homo sapiens (Human))"
unit_info = "µM"
comparison_symbol = "="
value_reported = 1.7

[[record]]
compound = "CCOc1ccc(C)nc1C(=O)N1C[C@H]2C[C@@H](Oc3ccc(C(F)(F)F)cn3)[C@@H]1C2"
system_tested = "human orexin 2 receptor (Homo sapiens (Human))"
unit_info = "µM"
comparison_symbol = "="
value_reported = 1.8

[[record]]
compound = "O=C(c1ccccc1-n1nccn1)N1C[C@H]2C[C@@H](Oc3ncccc3C(F)(F)F)[C@@H]1C2"
system_tested = "human orexin 2 receptor (Homo sapiens (Human))"
unit_info = "µM"
comparison_symbol = "="
value_reported = 0.676

[[record]]
compound = "COc1cccc(-n2nccn2)c1C(=O)N1CC2CC(Oc3ccc(C(F)(F)F)cn3)C1C2 (racemic)"
system_tested = "human orexin 2 receptor (Homo sapiens (Human))"
unit_info = "µM"
comparison_symbol = "="
value_reported = 0.229

[[record]]
compound = "CCOc1ncc2ccccc2c1C(=O)N1CC2CC(Oc3cnc(C(F)(F)F)cn3)C1C2 (racemic)"
system_tested = "human orexin 2 receptor (Homo sapiens (Human))"
unit_info = "µM"
comparison_symbol = "="
value_reported = 8.9

